System: hSTING-WT
protocol_details: cells
Set-up: species or system THP1
protocol_conditions: Homo sapiens, THP-1, 20 h, read-out: SB 11285 EC50 (µM)
experimental_readout: EC50 (µM)

molecule	result_number
NC1CC2CCC(C1)C2O (mixture of isomers)	0.008

* * *

Test system: human PBMCs
protocol_details: cells
protocol_conditions: PBMC, 24 h, read-out: EC50(μM), MIP-1α

molecule	measurement_unit	EC50
Nc1ncnc2c1ncn2[C@@H]1O[C@@H]2COP(O)(=S)O[C@@H]3[C@H](O)[C@@H](COP(O)(=S)O[C@H]2[C@H]1O)O[C@H]3n1cnc2c(N)ncnc21 (stereo partly shown) [ADU-S100]	µM	1.1
